- System: gene editing with dCas9
- ASSAY PROCEDURE: Screen of 322 new SSAP proteins, gene editing activity with dCas9 (Table 5)
- Assay type: cell-based
- CONDITION: normalized
- Excerpt: 322 new SSAP proteins were identified from sequence data, synthesized, and screened for activity with Cas9 and dCas9. Gene editing activities are shown below in Table 5, followed by amino acid sequences of the proteins.
MEASUREMENT NAME: dCas9 with SSAP activity (normalized)

[in] Given SSAP_95: SEQ ID NO: 264; Proteus terrae (protein, listed as Proteus terrae) SNPPLAQADLQKTQGTEVREKTKDQMLVEFINKPNMKAQLAAALPRHMAPDRMIRIVTTEIRKTPELANCDMQSFVGAVVQCSQLGLEPGNALGHAYILPFEKKRKQGNQWVTVRTDAQLIIGYRGMIDLARRSGQIVSISARTVRQGDSFHFEYGLNENLTHVPGENEDSPITHVYAVARLKDGGVQFEVMTHNQIEKVRTSSKAGQNGPWVSHWEEMAKKTVIRRLFKYLPVSIEMQKAVILDEKAEANVDQENSSVFEGEFEEVGQGA , state its recorded dCas9 with SSAP activity (normalized).
[out] −0.539
